# Procedure Text: NCI Yeast Anticancer Drug Screen. Data for the cln2 rad14 strain (AID 165);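 further: 0% = growth equal to vehicle treated cultures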
# Experimental Setup: S. cerevisiae cln2 rad14 strain, at 50.0 µM (retest, dose inferred, filed as 5.0), stronger effect = higher value
This is part of a sample that, as a whole, favours compounds with a hit. Of some 79,000 tested, about 15% had one in any assay.
Property Name: growth inhibition (%)

[
  {
    "Compound": "O=[N+]([O-])c1c(Cl)c(Cl)c(O)c(Cl)c1Cl",
    "Property Name": "growth inhibition",
    "Units": "%",
    "Result Value": 64
  },
  {
    "Compound": "COc1cccc(-c2cc(=O)c3c(C)ccnc3[nH]2)c1",
    "Property Name": "growth inhibition",
    "Units": "%",
    "Result Value": -4
  },
  {
    "Compound": "c1ccc(Cn2nnc(-c3ccccc3)c2-c2ccccc2)cc1",
    "Property Name": "growth inhibition",
    "Units": "%",
    "Result Value": 97
  },
  {
    "Compound": "Oc1cccc(-c2nc(-c3ccccc3)c(-c3ccccc3)[nH]2)c1",
    "Property Name": "growth inhibition",
    "Units": "%",
    "Result Value": 22
  },
  {
    "Compound": "O=C(O)c1cc2ccc(Cl)cc2c2c1C(=O)c1cc(Cl)ccc1-2",
    "Property Name": "growth inhibition",
    "Units": "%",
    "Result Value": 39
  },
  {
    "Compound": "COC(=O)c1cc(-c2ccc(C)cc2)c2c(=O)n(-c3ccccc3)[nH]c2n1",
    "Property Name": "growth inhibition",
    "Units": "%",
    "Result Value": 87
  },
  {
    "Compound": "O=C(O)c1c([N+](=O)[O-])cc(C(F)(F)F)cc1[N+](=O)[O-]",
    "Property Name": "growth inhibition",
    "Units": "%",
    "Result Value": 43
  },
  {
    "Compound": "C/C=C\\C(/C=C/C)(C(=O)OCCN(C)C)C(/C=C\\C)(/C=C/C)C(=O)OCCN(C)C (stereo not drawn)",
    "Property Name": "growth inhibition",
    "Units": "%",
    "Result Value": 97
  },
  {
    "Compound": "O=C(CN1CCCCC1)c1ccc(/C=C/c2ccc(Cl)cc2)cc1",
    "Property Name": "growth inhibition",
    "Units": "%",
    "Result Value": 75
  },
  {
    "Compound": "CC(C)OC(=O)C1C=CCc2c(O)ccc(O)c21 (stereo not drawn)",
    "Property Name": "growth inhibition",
    "Units": "%",
    "Result Value": 22
  },
  {
    "Compound": "Cc1cc(N(CCOS(C)(=O)=O)CCOS(C)(=O)=O)ccc1C=Nc1ccccc1C(=O)O",
    "Property Name": "growth inhibition",
    "Units": "%",
    "Result Value": 57
  },
  {
    "Compound": "Cc1cc(OC(=O)CCl)ccc1C(C)(C)C",
    "Property Name": "growth inhibition",
    "Units": "%",
    "Result Value": 5
  },
  {
    "Compound": "O=c1c(SSc2coc3ccccc3c2=O)coc2ccccc12",
    "Property Name": "growth inhibition",
    "Units": "%",
    "Result Value": 94
  }
]
